Where do these numbers come from? They come from patent US20220339143A1.

- experiment_notes: Single dose PK in healthy subjects (Cohorts 1, 2, S1 and S2), plasma
- Type: in vivo, human
- condition_summary: human, plasma, intravenous, 180 mg; 6 hr; read-out: Plasma concentration, Minimum
readout_name: concentration at 6 hr (ng/mL)
API: value field is a number in ng/mL; no unit string.

Record COC(=O)N1CCC[C@H](NS(C)(=O)=O)[C@@H]1CO[C@H]1CC[C@@H](c2ccccc2)CC1 [Compound A] . Reported concentration at 6 hr: 252

----------
- experiment_notes: Single dose PK in healthy subjects (Cohorts 1, 2, S1 and S2), plasma
- Assay type: in vivo, human
- condition_summary: human, plasma, iv, 240 mg, 240 mg single IV infusion, healthy subjects; read-out: AUC24 Mean
readout_name: AUC (ng·h/mL)
Write the number in ng·h/mL without appending the unit.

The recorded AUC for entry "COC(=O)N1CCC[C@H](NS(C)(=O)=O)[C@@H]1CO[C@H]1CC[C@@H](c2ccccc2)CC1" equals 4580

----------
- experiment_notes: Multiple-dose PK of intravenous Compound A in patients with NT1 (Cohorts B1, B2), plasma
- Assay type: in vivo, human
- condition_summary: human, plasma, intravenous; 11 mg; Day 7
readout_name: Tmax at 7 days (h)
Your answer should be a plain number; it is taken to be in h.

Sample "COC(=O)N1CCC[C@H](NS(C)(=O)=O)[C@@H]1CO[C@H]1CC[C@@H](c2ccccc2)CC1" ; Tmax at 7 days observed: 5.17

----------
- experiment_notes: Single dose PK in healthy subjects (Cohorts 1, 2, S1 and S2), plasma
- Format: in vivo, human
- condition_summary: human, plasma, intravenous, 7 mg; 9 hr; read-out: Plasma concentration, Maximum
readout_name: concentration at 9 h (ng/mL)
Please respond with the number in ng/mL and leave the unit unwritten.

In plain terms, "COC(=O)N1CCC[C@H](NS(C)(=O)=O)[C@@H]1CO[C@H]1CC[C@@H](c2ccccc2)CC1" has a documented concentration at 9 h of 15.2

----------
- experiment_notes: Single dose PK in healthy subjects (Cohorts 1, 2, S1 and S2), plasma
- Assay type: in vivo, human
- condition_summary: human, plasma, intravenous, 134.4 mg; 8 hr; read-out: Plasma concentration, Mean
readout_name: concentration at 8 h
Number first, unit second: that is the form wanted.

concentration at 8 h in this record for "COC(=O)N1CCC[C@H](NS(C)(=O)=O)[C@@H]1CO[C@H]1CC[C@@H](c2ccccc2)CC1" : 262 ng/mL

----------
- experiment_notes: Single dose PK in healthy subjects (Cohorts 1, 2, S1 and S2), plasma
- Format: in vivo, human
- condition_summary: human, plasma, intravenous, 112 mg; 8 hr; read-out: Plasma concentration, Q3
- Source text: […]
readout_name: concentration at 8 h (ng/mL)
Just the number please, in ng/mL, no unit attached.

Recorded result, COC(=O)N1CCC[C@H](NS(C)(=O)=O)[C@@H]1CO[C@H]1CC[C@@H](c2ccccc2)CC1 [Compound A] , concentration at 8 h: 216

----------
- experiment_notes: Single dose PK in patients with narcolepsy (Cohorts 5, 6 and 7), plasma
- Format: in vivo, human
- condition_summary: human, plasma, intravenous, 11.2 mg, Cmpd A 11.2 mg; Median; Cohort 5, 6, 7; read-out: CL (converted)
readout_name: clearance (mL/min)
A number alone suffices; assume mL/min.

// clearance value for "COC(=O)N1CCC[C@H](NS(C)(=O)=O)[C@@H]1CO[C@H]1CC[C@@H](c2ccccc2)CC1" : 924

----------
- experiment_notes: Single dose PK in healthy subjects (Cohorts 1, 2, S1 and S2), plasma
- Format: in vivo, human
- condition_summary: human, plasma, iv, 112 mg, 112 mg single IV infusion, healthy subjects; read-out: AUClast Median
readout_name: AUC(0-t) (ng·h/mL)
// units = ng·h/mL; emit number, no label

Measured AUC(0-t), "COC(=O)N1CCC[C@H](NS(C)(=O)=O)[C@@H]1CO[C@H]1CC[C@@H](c2ccccc2)CC1" : 2130

----------
- experiment_notes: Single dose PK in healthy subjects (Cohorts 1, 2, S1 and S2), plasma
- Format: in vivo, human
- condition_summary: human, plasma, intravenous, 240 mg; 3 hr; read-out: Plasma concentration, Minimum
- Text: […]
readout_name: concentration at 3 hr (ng/mL)
Report only the number, with the unit ng/mL understood.

Value of measured concentration at 3 hr for the entry COC(=O)N1CCC[C@H](NS(C)(=O)=O)[C@@H]1CO[C@H]1CC[C@@H](c2ccccc2)CC1 [Compound A] : 393

----------
- experiment_notes: Single dose PK in healthy subjects (Cohorts 1, 2, S1 and S2), plasma
- Format: in vivo, human
- condition_summary: human, plasma, iv, 7 mg, 7 mg single IV infusion, healthy subjects; read-out: AUCinf Geo Mean
readout_name: AUC(0-inf)
Your answer should be a number followed by the unit of measure.

# AUC(0-inf) of "COC(=O)N1CCC[C@H](NS(C)(=O)=O)[C@@H]1CO[C@H]1CC[C@@H](c2ccccc2)CC1" = 142 ng·h/mL

----------
- experiment_notes: Single dose PK in healthy subjects (Cohorts 1, 2, S1 and S2), plasma
- Type: in vivo, human
- condition_summary: human, plasma, intravenous, 180 mg; 8 hr; read-out: Plasma concentration, Q3
readout_name: concentration at 8 hr (ng/mL)
Kindly provide the numeric value in ng/mL only, without the unit symbol.

response.value for "COC(=O)N1CCC[C@H](NS(C)(=O)=O)[C@@H]1CO[C@H]1CC[C@@H](c2ccccc2)CC1" (field: concentration at 8 hr) = 330

----------
- experiment_notes: Single dose PK in healthy subjects (Cohorts 1, 2, S1 and S2), plasma
- Assay type: in vivo, human
- condition_summary: human, plasma, intravenous, 134.4 mg; 1 hr; read-out: Plasma concentration, Median
- Description: […]
readout_name: concentration at 1 h (ng/mL)
State the answer as a number, implicitly in ng/mL.

concentration at 1 h in this record for COC(=O)N1CCC[C@H](NS(C)(=O)=O)[C@@H]1CO[C@H]1CC[C@@H](c2ccccc2)CC1 [Compound A] : 187

----------
- experiment_notes: Single dose PK in healthy subjects (Cohorts 1, 2, S1 and S2), plasma
- Type: in vivo, human
- condition_summary: human, plasma, intravenous, 56 mg; 8 hr; read-out: Plasma concentration, Median
readout_name: concentration at 8 h (ng/mL)
State the answer as a number, implicitly in ng/mL.

The reported value for "COC(=O)N1CCC[C@H](NS(C)(=O)=O)[C@@H]1CO[C@H]1CC[C@@H](c2ccccc2)CC1" in terms of concentration at 8 h is 99.7

----------
- experiment_notes: Single dose PK in healthy subjects (Cohorts 1, 2, S1 and S2), plasma
- Type: in vivo, human
- condition_summary: human, plasma, intravenous, 56 mg; 1.5 hr; read-out: Plasma concentration, Q1
readout_name: concentration at 1.5 h (ng/mL)
Please give a number only; it is taken to be in ng/mL.

GET /value?item= "COC(=O)N1CCC[C@H](NS(C)(=O)=O)[C@@H]1CO[C@H]1CC[C@@H](c2ccccc2)CC1" &field=concentration at 1.5 h returns 88.8

----------
- experiment_notes: Single dose PK in healthy subjects (Cohorts 1, 2, S1 and S2), plasma
- Format: in vivo, human
- condition_summary: human, plasma, iv, 240 mg, 240 mg single IV infusion; 4 hr; read-out: Plasma Concentration of Cmpd A, Q3
readout_name: concentration at 4 h (ng/mL)
Please reply with the bare figure in ng/mL and do not write the unit itself.

For COC(=O)N1CCC[C@H](NS(C)(=O)=O)[C@@H]1CO[C@H]1CC[C@@H](c2ccccc2)CC1 [Compound A] the molecule record lists concentration at 4 h as 579

----------
- experiment_notes: Single dose PK in healthy subjects (Cohorts 1, 2, S1 and S2), plasma
- Assay type: in vivo, human
- condition_summary: human, plasma, intravenous, 28 mg; 6 hr; read-out: Plasma concentration, Q1
readout_name: concentration at 6 hr (ng/mL)
Kindly answer with a numeric value in ng/mL, unit omitted.

The reported concentration at 6 hr of the compound "COC(=O)N1CCC[C@H](NS(C)(=O)=O)[C@@H]1CO[C@H]1CC[C@@H](c2ccccc2)CC1" was 45.4

----------
- experiment_notes: Single dose PK in healthy subjects (Cohorts 1, 2, S1 and S2), plasma
- Format: in vivo, human
- condition_summary: human, plasma, iv, 180 mg, 180 mg single IV infusion, healthy subjects; read-out: Cmax Median
readout_name: Cmax (ng/mL)
Number in ng/mL, nothing else.

Recorded Cmax (molecule COC(=O)N1CCC[C@H](NS(C)(=O)=O)[C@@H]1CO[C@H]1CC[C@@H](c2ccccc2)CC1 [Compound A] ): 358

----------
- experiment_notes: Multiple-dose PK of intravenous Compound A in patients with NT1 (Cohorts B1, B2), plasma
- Format: in vivo, human
- condition_summary: human, plasma, intravenous, 44 mg; Day 1; read-out: AUCinf, Mean
readout_name: AUC(0-inf)
Give me the value, and tack the unit on after it.

AUC(0-inf) reading for "COC(=O)N1CCC[C@H](NS(C)(=O)=O)[C@@H]1CO[C@H]1CC[C@@H](c2ccccc2)CC1" : 697 ng·h/mL
